assayComment: T. gondii ME49Luc in HeLa cells, luciferase assay, 72 h, no IFN-y (AID 1259421)
conditionDescription: stronger effect = lower value, concentration not given here
Among all 6,400 compounds or so, about 610 (9.5%) were called active. This is one part of a sample in which actives are shown more often than they occur.

| compound | activity change, negative = inhibition / % |
| --- | --- |
| O=c1cc(-c2ccccc2)oc2c(O)c(O)ccc12 | -85.8 |
| O=c1cc(-c2ccccc2)oc2cc(O)ccc12 | 60.2 |
| CCS(=O)(=O)Nc1ccc2[nH]c(O)c(C(=Nc3ccc(CN4CCCCC4)cc3)c3ccccc3)c2c1 | -88 |
| C=C(C)[C@@H]1CC[C@]2(CO)CC[C@]3(C)[C@H](CC[C@@H]4[C@@]5(C)CC[C@H](O)C(C)(C)[C@@H]5CC[C@]43C)[C@@H]12 | 19.1 |
| O=S(=O)(O)c1ccc(-c2c3nc(c(-c4ccc(S(=O)(=O)O)cc4)c4ccc([nH]4)c(-c4ccc(S(=O)(=O)O)cc4)c4nc(c(-c5ccc(S(=O)(=O)O)cc5)c5ccc2[nH]5)C=C4)C=C3)cc1 | -0.332 |
| CC(=O)OCC(=O)[C@@]1(O)CCC2C3C[C@H](C)C4=CC(=O)C=CC4(C)C3[C@@H](O)CC21C (stereo partly drawn) | -6.72 |
| O=c1cc(-c2ccccc2)oc2cccc(O)c12 | 21.2 |
| Cc1cccc(C)c1NC(=O)c1cc(S(N)(=O)=O)c(Cl)cc1O | 15.4 |
| CC(=O)OCC(=O)[C@@]1(O)CCC2C3CCC4=CC(=O)C=C[C@]4(C)[C@@]3(Cl)[C@@H](Cl)C[C@@]21C (stereo partly drawn) | -0.235 |
| C[N+]1(C)[C@@H]2CC(OC(=O)C(O)(c3cccs3)c3cccs3)C[C@H]1[C@@H]1O[C@@H]12 (stereo partly drawn) | 13.9 |
| CCCCCCCCCCCCCCOS(=O)(=O)O | 8.96 |
| Cn1cnc(-c2cc3nccc(Oc4ccc(NC(=S)NC(=O)Cc5ccccc5)cc4F)c3s2)c1 | 28.8 |
| COc1ccc(/C=C\c2cc(OC)c(OC)c(OC)c2)cc1OP(=O)(O)O | -67.2 |
| CNc1cc(OC)c(C(=O)N[C@@H]2CCN(Cc3ccccc3)[C@@H]2C)cc1Cl (racemic) | 26 |
| CC(=O)OCC(=O)[C@@]1(O)CCC2C3CCC4=CC(=O)CC[C@]4(C)C3C(=O)C[C@@]21C (stereo partly drawn) | -24.8 |
| Nc1nccc(Oc2ccc(NC(=O)c3c[nH]cc(-c4ccc(F)cc4)c3=O)cc2F)c1Cl | -76.8 |
| CCOc1ccn(-c2ccc(F)cc2)c(=O)c1C(=O)Nc1ccc(Oc2ccnc(N)c2Cl)c(F)c1 | 0.966 |
| NCCCCN(Cc1nc2ccccc2[nH]1)[C@H]1CCCc2cccnc21 | 25.8 |

Sourced from PubChem BioAssay AID1259421
